Recorded values, source PubChem BioAssay AID1745844.

- Test system: rodent lifetime carcinogenesis bioassay, tumor incidence TD50
- procedureText: carcinogenic potency in animals, long-term in vivo studies, CPDB compilation (AID 1745844)
- measurementContext: rat; strain Fischer 344; females; inhaled; site: kidney; lesion: tubule adenoma; dosed 103 weeks; study length 104 weeks
assayEndpoint: TD50 (mg/kg/day)
Could you give me the number in mg/kg/day? Just the number is fine.

Recall the recorded TD50 for FC(F)=C(F)F with rodent lifetime carcinogenesis bioassay, tumor incidence TD50 and state it. 1510

* * *

- System: rodent lifetime carcinogenesis bioassay, tumor incidence TD50
- procedureText: carcinogenic potency in animals, long-term in vivo studies, CPDB compilation (AID 1745844)
- measurementContext: rat; strain Fischer 344; males; by gavage; site: liver; lesion: several types; types named in the paper; dosed 35 weeks; study length 120 weeks
assayEndpoint: TD50

Checklist item: TD50 tested on rodent lifetime carcinogenesis bioassay, tumor incidence TD50, entry CC(O)CN(N=O)C(=O)NCCCl (configuration not stated) , value? 0.861 mg/kg/day

Any idea what TD50 came out for O=NN(CCO)C(=O)NCCCl on rodent lifetime carcinogenesis bioassay, tumor incidence TD50? 0.15 mg/kg/day
